ASSAYED_TARGET: human CSNK1D (Homo sapiens (Human))
Sequence (P48730 whole entry): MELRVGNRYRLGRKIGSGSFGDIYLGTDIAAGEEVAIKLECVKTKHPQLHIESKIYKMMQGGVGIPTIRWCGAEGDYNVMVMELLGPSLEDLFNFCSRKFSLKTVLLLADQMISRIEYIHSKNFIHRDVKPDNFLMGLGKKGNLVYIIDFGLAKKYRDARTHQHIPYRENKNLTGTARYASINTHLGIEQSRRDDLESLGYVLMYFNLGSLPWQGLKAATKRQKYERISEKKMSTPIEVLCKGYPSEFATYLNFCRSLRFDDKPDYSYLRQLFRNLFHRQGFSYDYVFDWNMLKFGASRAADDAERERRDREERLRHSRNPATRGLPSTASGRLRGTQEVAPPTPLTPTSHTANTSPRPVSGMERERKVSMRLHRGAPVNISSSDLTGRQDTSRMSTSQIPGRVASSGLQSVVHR
What IC50 was measured for each of the following?
Numbers only, in nM.

Below, 5 compounds whose answers are already recorded.
[[record]]
compound = "O=C1N[C@@H]2CCC[C@@H]2c2[nH]c(-c3ccnc(NC(=O)C(CC(F)F)c4ccc(F)cc4)c3)c(Nc3ccccc3)c21 (single isomer, unassigned; (-)) [Example 24]"
measured_quantity = "IC50"
recorded_measurement = 24

[[record]]
compound = "Cc1cn(C)c(=O)c2c(Nc3ccccc3)c(-c3ccnc(NC(=O)C(CC(F)F)c4ccc(F)cc4)c3)[nH]c12 (single isomer, unassigned) [Example 12]"
measured_quantity = "IC50"
recorded_measurement = 160

[[record]]
compound = "CN1CC(CC(F)(F)F)c2[nH]c(-c3ccnc(NC(=O)C(CC(F)F)c4ccc(F)cc4)c3)c(Nc3cscn3)c2C1=O (single isomer, unassigned) [Example 53]"
measured_quantity = "IC50"
recorded_measurement = 35

[[record]]
compound = "Cn1cc(CC(F)F)c2[nH]c(-c3ccnc(NC(=O)Cc4ccc(F)cc4)c3)c(Nc3ccccc3)c2c1=O"
measured_quantity = "IC50"
recorded_measurement = 9.7

[[record]]
compound = "CN1CC(CC(F)(F)F)c2[nH]c(-c3ccnc(NC(=O)Cc4ccc(F)cc4)c3)c(Nc3ccccc3)c2C1=O (racemic) [Example 14]"
measured_quantity = "IC50"
recorded_measurement = 5.1


# map each compound to its IC50
1. Cc1cn(C)c(=O)c2c(Nc3ccccc3)c(-c3ccnc(NC(=O)C(CC(F)F)c4ccc(F)cc4)c3)[nH]c12 (racemic) [Example 11]
2. C[C@@H](C(=O)Nc1cc(-c2[nH]c3ccn(C)c(=O)c3c2Nc2ccccc2)ccn1)c1ccc(F)cc1 (single isomer, unassigned)
3. CN1CC(CC(F)(F)F)c2[nH]c(-c3ccnc(NC(=O)Cc4ccc(F)cc4)c3)c(Nc3cscn3)c2C1=O (racemic) [Example 46]
4. Cn1cc(CC(F)(F)F)c2[nH]c(-c3ccnc(NC(=O)Cc4ccc(F)cc4)c3)c(Nc3ccccc3)c2c1=O
5. CCC1CNC(=O)c2c1[nH]c(-c1ccnc(NC(=O)C(CC(F)F)c3ccc(F)cc3)c1)c2Nc1ccccc1 (centres unmarked)
6. CCc1c[nH]c(=O)c2c(Nc3ccccc3)c(-c3ccnc(NC(=O)C(CC(F)F)c4ccc(F)cc4)c3)[nH]c12 (racemic)

Out:
1: 25; 2: 28; 3: 72; 4: 9.1; 5: 16; 6: 6.4

---

ASSAYED_TARGET: human CSNK1A1 (Homo sapiens (Human), UniProt P48729)
Sequence (P48729 whole entry): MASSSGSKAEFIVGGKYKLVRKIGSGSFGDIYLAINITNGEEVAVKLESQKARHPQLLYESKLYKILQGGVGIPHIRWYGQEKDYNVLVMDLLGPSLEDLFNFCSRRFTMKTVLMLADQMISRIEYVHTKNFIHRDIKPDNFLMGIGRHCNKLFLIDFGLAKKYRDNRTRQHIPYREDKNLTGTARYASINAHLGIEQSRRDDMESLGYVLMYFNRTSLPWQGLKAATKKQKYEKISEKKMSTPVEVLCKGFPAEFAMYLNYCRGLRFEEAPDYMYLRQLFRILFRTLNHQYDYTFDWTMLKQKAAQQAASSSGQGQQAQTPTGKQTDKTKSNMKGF
EXPERIMENT: CSNK1A1 Assay 2 (ADP-Glo, 1 μM ATP)
Format: biochemical
TEST_CONDITIONS: median, Table 2, read-out: CSNK1A1 Assay 2 IC50 [mol/l] (median)
MEASURED_QUANTITY: IC50 (nM)
One number for each entry, in nM.

Consider the following illustrative entries.
[[record]]
molecule = "Cn1cc(CC(F)(F)F)c2[nH]c(-c3ccnc(NC(=O)C(CC(F)F)c4ccc(F)cc4)c3)c(Nc3ccccc3)c2c1=O (single isomer, unassigned) [Example 36]"
recorded_measurement = 6.2

[[record]]
molecule = "Cc1cn(C)c(=O)c2c(Nc3ccccc3)c(-c3ccnc(NC(=O)C(C)c4ccc(F)cc4)c3)[nH]c12 (single isomer, unassigned) [Example 40]"
recorded_measurement = 15


List reported IC50 for each of these molecules:
1. CN1CC(CC(F)(F)F)c2[nH]c(-c3ccnc(NC(=O)Cc4ccc(F)cc4)c3)c(Nc3ccccc3)c2C1=O (single isomer, unassigned) [Example 15]
2. CN1CC(CC2CC2)c2[nH]c(-c3ccnc(NC(=O)Cc4ccc(F)cc4)c3)c(Nc3ccccc3)c2C1=O (single isomer, unassigned) [Example 20]

Out:
9.4
17
